Each item that follows carries a reported pIC50.
- SYSTEM TESTED: DRB1*1101 (human, UniProt P01903 26-216, limits assumed)
- EXPERIMENT DESCRIPTION: inhibition of 125I-labelled probe peptide binding to purified HLA class II
A value of pIC50 is the negative decimal logarithm of a concentration given in moles per litre.

| BINDER | pIC50 |
| --- | --- |
| DTFRKLFRVYSNDLR | 8.44 |

Query: Any idea what its pIC50 is? The binder is `DTFRKLFRVYSNFGR`
Result: 8.55
